Experiment: Viability qHTS for spleen associated tyrosine kinase inhibitor (SYKi) drug resistant MV4-11 cells (AID 1963824); note: nearly all actives have a fitted effect of over 35% in size
Details: SYKi-resistant MV4-11 viability, CellTiter-Glo, 72 h; series mostly up to 45 µM
Inconclusive results are not listed. Active and inactive are the calls of the source. Calls come from the whole dose curve; as a rule, active = well fitted cell-killing curve with a large enough effect; inconclusive = small, poorly fitted or top-dose-only effect, or effect the other way; inactive = no such curve, though single readings can be large or run the other way.
Valid outcomes are listed here; reply with one: active, inactive

Lookup: What is the recorded call for this compound in the test? COC(=O)[C@]12C(=O)C(C)=C(O)[C@@]1(C)C(C)=CC1[C@@]34CC[C@@H](OC(C)=O)C(C)(C)C3[C@H](C[C@]12C)OC4=O (some centres undefined)
Found: inactive

Lookup: What is the recorded call for this compound in the test? `COc1cc(C(=O)OC[C@@]2(O)CO[C@@H](O[C@H]3[C@H](Oc4ccc(C(=O)O)cc4OC)O[C@H](CO)[C@@H](O)[C@@H]3O)[C@@H]2O)ccc1O`
Found: inactive

Lookup: What is the recorded call for this compound in the test? `C=C1C(=O)O[C@H]2/C=C(/C)[C@@H](OC(C)=O)C/C=C(\C)C[C@@H](OC(=O)/C(=C/C)COC(=O)/C(=C/C)CO)[C@@H]12`
Found: active

Lookup: What is the recorded call for this compound in the test? `O=C(Oc1ccccc1)c1ccccc1O`
Found: inactive

Lookup: What is the recorded call for this compound in the test? `COc1cc2nc(C3CC3)nc(N3CCN(c4ccccc4OC)CC3)c2cc1OC`
Found: active

Lookup: What is the recorded call for this compound in the test? Oc1ccc(C(O)CNCCCCCCNCC(O)c2ccc(O)c(O)c2)cc1O (centres undefined)
Found: inactive

Lookup: What is the recorded call for this compound in the test? `Cc1[nH]c2ccc(F)cc2c1-c1nc2c3cccnc3c3ncccc3c2[nH]1`
Found: active

Lookup: What is the recorded call for this compound in the test? `Cn1cncc1[C@@](N)(c1ccc(Cl)cc1)c1ccc2c(c1)c(-c1cccc(Cl)c1)cc(=O)n2C`
Found: active

Lookup: What is the recorded call for this compound in the test? `CCOC(=O)[C@H](CCc1ccccc1)N[C@@H](C)C(=O)N1CCC[C@H]1C(=O)O`
Found: inactive

###

Experiment: Quantitative highthroughput screen to assess conditional lethalithy of P12 Ichikawa cells grown in RPMI1640 with dialyzed fetal bovine serum (RPMI+ds) (AID 1963880); note: nearly all actives have a fitted effect of over 35% in size;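 for viability: 100% = DMSO wells and 0% = empty wells on each plate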
Conditions: ATP luminescence, 48 h; P12-Ichikawa viability; series mostly up to 45.8 µM
Inconclusive results are not listed. The source made the active and inactive calls. Calls come from the whole dose curve; as a rule, active = well fitted cell-killing curve with a large enough effect; inconclusive = small, poorly fitted or top-dose-only effect; inactive = flat fitted curve, though single readings scatter.
Valid outcomes are listed here; reply with one: yes (1) for active, no (0) for inactive

Lookup: What is the recorded call for this compound in the test? `CC(C)C[C@H](NC(=O)[C@H](CCc1ccccc1)NC(=O)CN1CCOCC1)C(=O)N[C@@H](Cc1ccccc1)C(=O)N[C@@H](CC(C)C)C(=O)[C@@]1(C)CO1`
Found: yes (1)

Lookup: What is the recorded call for this compound in the test? `CC(C)(N)c1ccc(-c2nc3ccccc3nc2-c2ccccc2)cc1`
Found: yes (1)

Lookup: What is the recorded call for this compound in the test? `CCCOc1ccc(C(=O)OCCN(CC)CC)cc1N`
Found: no (0)

Lookup: What is the recorded call for this compound in the test? `NS(=O)(=O)OC[C@@H]1C[C@@H](n2ccc3c(N[C@H]4CCc5ccccc54)ncnc32)C[C@H]1O`
Found: yes (1)

Lookup: What is the recorded call for this compound in the test? CN(C)c1ccc(C2Nc3ccc4ccccc4c3C3=C2C(=O)CC(C)(C)C3)cc1Br (centres undefined)
Found: no (0)

Lookup: What is the recorded call for this compound in the test? `C[C@]12CC[C@@H]3c4ccc(O)cc4CC[C@H]3[C@H]1[C@@H](O)[C@@H](O)[C@H]2O`
Found: no (0)

Lookup: What is the recorded call for this compound in the test? `Nc1ccn([C@@H]2C(F)=C(CO)[C@@H](O)[C@H]2O)c(=O)n1`
Found: yes (1)

Lookup: What is the recorded call for this compound in the test? `CN1CCC[C@H]1CCO[C@](C)(c1ccccc1)c1ccc(Cl)cc1`
Found: no (0)

Lookup: What is the recorded call for this compound in the test? `N#Cc1c(C2CCNCC2)cc(-c2c(O)cccc2OCC2CC2)nc1N`
Found: no (0)
